assay: Chromatographic hydrophobicity index of compound at pH 7.4 by HPLC analysis; type: physicochemical
MEASURE NAME: CHI

Worked set:
>  <SUBSTANCE SMILES>
O=C(NCCO)c1cc(C(=O)NCCO)cc(C(=O)NCCO)c1

>  <CHI>
13.8

$$$$
>  <SUBSTANCE SMILES>
CC[C@H](C)[C@H](N)C(=O)NCCNC(=O)c1cc(C(=O)NCCO)cc(C(=O)NCCO)c1.Cl

>  <CHI>
19.5

$$$$
>  <SUBSTANCE SMILES>
CCCN1CCC(CNC(=O)c2cc(C(=O)NCCO)cc(C(=O)NCCO)c2)CC1

>  <CHI>
17.6

$$$$
>  <SUBSTANCE SMILES>
O=C(NCCO)c1cc(C(=O)NCCO)cc(C(=O)NCCN2CCOCC2)c1

>  <CHI>
18.1

$$$$

I: O=C(NCCO)c1cc(C(=O)NCCO)cc(C(=O)NCCCN2CCOCC2)c1
II: O=C(NCCO)c1cc(C(=O)NCCO)cc(C(=O)NCC2CCN(CC3CCCCC3)CC2)c1
Inquiry: Which has the smaller recorded CHI, I or II ? Your choice should be expressed through its label.
Reply text: I

###

experiment: Chromatographic hydrophobicity index, log D of compound at pH 7.4 by HPLC analysis; assay type: physicochemical; settings: buffer
MEASURE NAME: chromatographic logD

>  <SUBSTANCE SMILES>
CC[C@H](C)[C@H](N)C(=O)NCCNC(=O)c1cc(C(=O)NCCO)cc(C(=O)NCCO)c1.Cl

>  <chromatographic logD>
-0.24

$$$$

I: O=C(NCCO)c1cc(C(=O)NCCO)cc(C(=O)NCCN2CCOCC2)c1
II: O=C(NCCO)c1cc(C(=O)NCCO)cc(C(=O)NCCO)c1
III: O=C(NCCO)c1cc(C(=O)NCCO)cc(C(=O)NCC2CCN(CC3CCCCC3)CC2)c1
Inquiry: Kindly order the items shown according to chromatographic logD, from the highest value down. Please list the labels in the order you were asked to rank them.
Reply text: III, I, II
